Reference for the values: the supplement of paper PMC10724198

- Test system: Saccharomyces cerevisiae
- Test: protein stability index of tFT-peptide fusion (C-terminal peptide) (PSI (0-1 scale)); higher = more stable (slower turnover)
- Measurement Conditions: genetic background: wild type; temperature: 30 C
Measured Property: protein stability index

Example entries begin here.
SFRIWLFRFFFV :: 0.372
FLACYSSFLFVS :: 0.0895
LCLRCQCIGTLS :: 0.435
CSLFYVFYRRLL :: 0.342
SLASPPPLLILR :: 0.354

Quick batch: protein stability index for everything below.
1. VFVFLFVFLFLL
2. CSLRGLFLVVSV
3. CLFSVLFPLFFR
4. LVFLYFHFCCGF
5. STSSVMVFLRMC

Result:
1. 0.2
2. 0.292
3. 0.142
4. 0.386
5. 0.124

// for each sequence in input: emit protein stability index
1. WQGWFLSLCIWV
2. VVCPCIIYVPGV
3. SWTAYSYQWVFF
4. VIGFGEVWIRCV
5. GRVETIEFLFLR
6. LVLALTPFLHSF
7. LLVFSLLRPFLF
8. LLQCRTGLASGR

Result:
1: 0.296; 2: 0.461; 3: 0.0403; 4: 0.0831; 5: 0.394; 6: 0.284; 7: 0.417; 8: 0.656

Request: Form field - read-out: protein stability index; system: Saccharomyces cerevisiae; submitted item: `VVFWFPFVLRCC`;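 further: PSI is a weighted mean of sequencing reads over stability bins, variants kept only with over 10 reads, mCherry proximal and sfGFP distal, peptide attached via GGGS linker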
Result: 0.0509
